Test system: human colon cancer cell strain HCT-116
Assay: MTT assay, inhibition of tumor cell growth in vitro, 72 h
Format: cell-based
Conditions: Homo sapiens, HCT-116, MTT, read-out: Antitumor proliferative activities of tumor cell (IC50, μM) HCT-116 (converted)
Criterion: IC50 strictly under 3 µM. Met: Satisfied. Not met: Not satisfied.

Cc1nc(C(=O)N[C@H]2CNCC[C@@H]2C2CCCNC2)ccc1-c1c(Br)cnn1C (mixture of isomers); Not satisfied
COCCC1C[C@@H](c2ccc(Cl)c(Cl)c2)[C@H](NC(=O)c2cc(-c3c(Cl)cnn3C)c(Cl)o2)CN1 (some centres unmarked); Satisfied
CCC[C@H]1CNC[C@@H](NC(=O)c2cc(-c3c(Cl)cnn3C)c(Cl)s2)[C@@H]1c1cccc(F)c1; Satisfied
Cn1ncc(Cl)c1-c1cc(C(=O)N[C@@H]2CNC(CCOC(=O)C(F)(F)F)C[C@H]2c2ccc(F)c(F)c2)oc1Cl (some centres unmarked); Satisfied
Cn1ncc(Cl)c1-c1ccc(C(=O)N[C@@H]2CNCC[C@H]2c2ccc(Cl)cc2)c(C(F)(F)F)c1; Satisfied
Cn1ncc(Cl)c1-c1cc(C(=O)N[C@@H]2CNCC[C@H]2c2ccc(C(F)(F)F)cc2)oc1Cl; Not satisfied
Cn1nccc1-c1coc(C(=O)N[C@H]2CNCC[C@@H]2c2ccccc2)c1 (racemic); Not satisfied
C[C@H]1CNC[C@@H](NC(=O)c2cc(-c3c(Cl)cnn3C)c(Cl)o2)[C@@H]1c1cccc(F)c1; Satisfied

Problem: Is IC50 strictly under 3 µM for the entry Cn1ncc(Br)c1-c1coc(C(=O)N[C@H]2CNCC[C@@H]2c2ccccc2)c1 (racemic) ?
Solution: Not satisfied

Problem: Is IC50 strictly under 3 µM for the entry Cn1ncc(Br)c1-c1coc(C(=O)N[C@H]2CNCC[C@@H]2c2ccc(Cl)cc2)c1 (racemic) ?
Solution: Satisfied

Problem: Is IC50 strictly under 3 µM for the entry Cn1ncc(Cl)c1-c1cc(C(=O)N[C@H]2CNCC[C@@H]2c2ccc(C(F)(F)F)cc2)oc1Cl (racemic) [Compound 30] ?
Solution: Not satisfied

Problem: Is IC50 strictly under 3 µM for the entry Cn1ncc(Cl)c1-c1cc(C(=O)N[C@H]2CNCC[C@@H]2c2ccccc2)oc1Cl (racemic) ?
Solution: Not satisfied

Problem: Is IC50 strictly under 3 µM for the entry Cn1ncc(Cl)c1-c1cc(C(=O)N[C@@H]2CNC(CCN3CCC(O)CC3)C[C@H]2c2ccc(Cl)c(Cl)c2)oc1Cl (some centres unmarked) ?
Solution: Satisfied

---

Tested on: Human ovarian cancer cell strain OVCAR-8
Assay: MTT assay, inhibition of tumor cell growth in vitro, 72 h
Assay type: cell-based
Conditions: Homo sapiens, OVCAR-8, MTT, read-out: Antitumor proliferative activities of tumor cell (IC50, μM) OVCAR-8
measuredProperty: IC50

CN(C)CCC1C[C@@H](c2ccc(Cl)c(Cl)c2)[C@H](NC(=O)c2cc(-c3c(Cl)cnn3C)c(Cl)o2)CN1 (stereo partly shown); 1.01 µM

Problem: # lookup: IC50 of CC(=O)OCCC1C[C@@H](c2ccc(F)c(F)c2)[C@H](NC(=O)c2cc(-c3c(Cl)cnn3C)c(Cl)o2)CN1 (stereo partly shown)
Solution: 4.69 µM

Problem: # lookup: IC50 of Cn1ncc(Cl)c1-c1cc(C(=O)N[C@H]2CNC[C@@H]2c2ccc(C(F)(F)F)cc2)oc1Cl (racemic)
Solution: 24.3 µM

Problem: # lookup: IC50 of Cn1ncc(Br)c1-c1coc(C(=O)N[C@H]2CNCC[C@@H]2c2ccc(Cl)cc2)c1 (racemic)
Solution: 4.89 µM

Problem: # lookup: IC50 of Cn1ncc(Cl)c1-c1cc(C(=O)N[C@@H]2CNC(CCN3CCOCC3)C[C@H]2c2ccc(Cl)c(Cl)c2)oc1Cl (stereo partly shown)
Solution: 1.3 µM

Problem: # lookup: IC50 of Cn1ncc(Cl)c1-c1cc(C(=O)N[C@@H]2CNC(CC(=O)NC3CCC3)C[C@H]2c2ccc(Cl)c(Cl)c2)oc1Cl (stereo partly shown)
Solution: 0.45 µM

Problem: # lookup: IC50 of Cc1[nH]c(C(=O)N[C@H]2CNCC[C@@H]2c2ccncc2)cc1-c1c(Br)cnn1C (racemic)
Solution: 3.68 µM

Problem: # lookup: IC50 of Cc1cc(C(=O)N[C@H]2CNCC[C@@H]2C2CCCC(Cl)C2)ncc1-c1c(Cl)cnn1C (stereo partly shown)
Solution: 9.53 µM

Problem: # lookup: IC50 of CCc1c(-c2c(Cl)cnn2C)cc(C(=O)N[C@H]2CNCC[C@@H]2C2CCC(F)C2)n1C (stereo partly shown)
Solution: 1.26 µM

Problem: # lookup: IC50 of Cn1ncc(Cl)c1-c1cc(C(=O)N[C@@H]2CNC(CCN3CCC(O)CC3)C[C@H]2c2ccc(Cl)c(Cl)c2)oc1Cl (stereo partly shown)
Solution: 1.56 µM

Problem: # lookup: IC50 of Cn1ncc(Br)c1-c1coc(C(=O)N[C@H]2CNC[C@@H]2c2ccc(C(F)(F)F)cc2)c1 (racemic)
Solution: 10.6 µM

Problem: # lookup: IC50 of Cc1cc(C(=O)N[C@@H]2CNC(CCN3CCCCC3)C[C@H]2c2ccc(F)c(F)c2)ccc1-c1c(Cl)cnn1C (stereo partly shown)
Solution: 0.34 µM

Problem: # lookup: IC50 of CNC(=O)CC1C[C@@H](c2cccc(F)c2)[C@H](NC(=O)c2cc(Cl)c(-c3c(Cl)cnn3C)s2)CN1 (stereo partly shown)
Solution: 3.21 µM

Problem: # lookup: IC50 of C[C@H]1CNC[C@@H](NC(=O)c2ccc(-c3c(Cl)cnn3C)s2)[C@@H]1c1cccc(F)c1
Solution: 1.19 µM

Problem: # lookup: IC50 of Cn1ncc(Cl)c1-c1cc(C(=O)N[C@@H]2CNC(CC(=O)NCC(O)CO)C[C@H]2c2ccc(Cl)c(Cl)c2)oc1Cl (stereo partly shown)
Solution: 0.74 µM

Problem: # lookup: IC50 of Cn1ncc(-c2ccncc2)c1-c1ccc(C(=O)N[C@@H]2CNCC[C@H]2c2cccc(F)c2)s1
Solution: 6.67 µM

Problem: # lookup: IC50 of Cn1ncc(-c2ccccc2)c1-c1ccc(C(=O)N[C@@H]2CNCC[C@H]2c2ccc(F)c(F)c2)s1
Solution: 0.67 µM

Problem: # lookup: IC50 of Cc1cnn(C)c1-c1cnc(C(=O)N[C@H]2CNCC[C@@H]2c2ccc(F)c(F)c2)cc1F (racemic) [Compound 46]
Solution: 7.94 µM
